Below: a set of entries, each annotated with reported IC50, inhibition of 10 pM hIL-33 activation of HEK293/hST2/NFkB-luciferase cells.
# ASSAY_SYSTEM: T1, human IL-33 (R&D Systems, #3625-IL-010/CF) (human, UniProt O95760 112-270)
# T1 sequence (looked up): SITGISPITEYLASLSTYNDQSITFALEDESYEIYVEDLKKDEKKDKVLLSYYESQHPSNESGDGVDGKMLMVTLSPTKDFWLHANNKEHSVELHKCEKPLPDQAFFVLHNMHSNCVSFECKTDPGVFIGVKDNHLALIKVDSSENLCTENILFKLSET
# ASSAY_DETAILS: cell-based or functional assay
READOUT_NAME: IC50, inhibition of 10 pM hIL-33 activation of HEK293/hST2/NFkB-luciferase cells (M)

binder="H4H9672P (antibody, human IgG4, V domains shown, Human IgG4 Fc (H4H)) VH: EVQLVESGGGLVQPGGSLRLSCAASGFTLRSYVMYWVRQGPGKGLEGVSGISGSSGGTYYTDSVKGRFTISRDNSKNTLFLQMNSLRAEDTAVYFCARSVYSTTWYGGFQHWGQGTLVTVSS VL: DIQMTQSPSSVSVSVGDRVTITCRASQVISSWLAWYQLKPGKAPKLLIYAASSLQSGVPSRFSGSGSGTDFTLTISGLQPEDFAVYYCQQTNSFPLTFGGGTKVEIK" measurement_units=M measured_number=2.5e-11
binder="H4H9676P (antibody, human IgG4, V domains shown, Human IgG4 Fc (H4H)) VH: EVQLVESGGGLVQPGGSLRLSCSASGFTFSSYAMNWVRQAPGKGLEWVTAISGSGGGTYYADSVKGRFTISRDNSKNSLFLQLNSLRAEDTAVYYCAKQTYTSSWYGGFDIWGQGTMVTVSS VL: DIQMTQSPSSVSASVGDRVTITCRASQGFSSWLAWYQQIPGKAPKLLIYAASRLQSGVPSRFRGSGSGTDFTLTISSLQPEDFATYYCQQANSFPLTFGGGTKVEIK" measurement_units=M measured_number=3.5e-11
binder="H4H9666P (antibody, human IgG4, V domains shown, Human IgG4 Fc (H4H)) VH: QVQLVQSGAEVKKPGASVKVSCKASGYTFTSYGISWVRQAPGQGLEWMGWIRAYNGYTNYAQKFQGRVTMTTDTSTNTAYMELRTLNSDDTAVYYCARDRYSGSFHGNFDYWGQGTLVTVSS VL: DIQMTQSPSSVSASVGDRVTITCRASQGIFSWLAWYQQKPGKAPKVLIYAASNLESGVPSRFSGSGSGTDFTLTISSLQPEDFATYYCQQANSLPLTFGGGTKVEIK" measurement_units=M measured_number=3.5e-11
